- assay.summary: basal RPMI8226 viability, no added stimulus, profiling panel, cell-based, calcein-AM fluorescence, 48 h, PK04 Diversity Set (AID 1166);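 also: cells grown under basal conditions without added stimulus; test concentration not given here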
- condition: RPMI8226 myeloma viability, higher = more signal
We label by threshold. Values of z-score strictly beneath -0.3 are Yes. Values of -0.3 and up are No.

Here are 9 compounds together with their reported answers.
>>> class("CO[C@@H]1COC(=O)[C@@H]2CCCN2C(=O)CC=C[C@@H](C)[C@H](OC)COC(=O)[C@@H]2CCCN2C(=O)CC=C[C@H]1C")
"No"
>>> class("COCCCNC(=O)[C@@]1(Sc2ccc(C)cc2)CC(=O)N(Cc2cc(C(F)(F)F)cc(C(F)(F)F)c2)[C@@H]1c1ccc(CO)cc1I")
"Yes"
>>> class("CC(C)N1CC=CC23O[C@@H]4/C=C\\CCCOC(=O)C4[C@H]2C(=O)N(CCO)[C@@H]3C1=O (stereo not given in full)")
"No"
>>> class("C=CC[C@@]1(C(=O)N2CCOCC2)N=C(c2ccc(OCCCO)cc2)O[C@@H]1c1ccccc1")
"Yes"
>>> class("COc1ccc([Si](C)(C)[C@@H]2[C@@H](CCO)O[C@]3(C(=O)N(Cc4ccc(NC(=O)[C@H](C)O)cc4)c4ccccc43)[C@H]2C)cc1")
"Yes"
>>> class("O=C(NCC(F)(F)F)[C@@H]1c2ccccc2C(=O)N(Cc2ccccc2Cl)[C@H]1c1ccc(CO)cc1")
"Yes"
>>> class("O=C1NC(=O)C2C1C=CC(C(O)C=Cc1ccc([N+](=O)[O-])cc1)N2Nc1ccccn1 (stereo not given)")
"Yes"
>>> class("Cc1ccc(N2C(=O)c3ccccc3[C@@H](C(=O)NCc3ccccc3)[C@@H]2c2ccc(CO)cc2)nc1")
"No"
>>> class("O=C(NCc1ccccc1)[C@@]1(Cc2ccccc2)COC(c2ccc(OCCCO)cc2)=N1")
"Yes"

Consider the compound `CC(=O)NCCCC[C@@H]1NC(=O)[C@@H]2C[C@H](C(=O)NCc3ccc(F)cc3)[C@H](c3cccc(OCCO)c3)N2C1=O` . Is its z-score strictly less than -0.3?
No
